subject-of-test: Calcium-dependent protein kinase 1 (Plasmodium falciparum (isolate 3D7)) (UniProt P62344)
Sequence (P62344 whole entry, looked up): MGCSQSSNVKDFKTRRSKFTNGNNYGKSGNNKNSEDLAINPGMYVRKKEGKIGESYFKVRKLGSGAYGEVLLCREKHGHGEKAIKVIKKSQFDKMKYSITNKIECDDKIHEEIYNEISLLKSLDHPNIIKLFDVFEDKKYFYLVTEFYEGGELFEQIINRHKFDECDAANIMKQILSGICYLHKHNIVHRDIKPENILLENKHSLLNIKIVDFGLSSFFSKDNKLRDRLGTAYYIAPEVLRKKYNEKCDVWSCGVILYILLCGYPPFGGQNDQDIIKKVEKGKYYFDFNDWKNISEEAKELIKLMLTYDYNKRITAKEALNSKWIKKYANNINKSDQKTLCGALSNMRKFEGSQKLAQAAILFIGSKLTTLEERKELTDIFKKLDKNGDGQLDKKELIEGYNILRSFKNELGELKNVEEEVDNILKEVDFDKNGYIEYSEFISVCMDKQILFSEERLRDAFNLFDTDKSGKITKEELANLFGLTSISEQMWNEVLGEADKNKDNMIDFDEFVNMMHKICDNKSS
assay-protocol: PfCDPK1 kinase inhibitors, biochemical, TCAMS library (AID 1159585);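 further: inhibitors leave more ATP so luminescence rises with inhibition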
assay-setup: recombinant PfCDPK1, Kinase-Glo ATP depletion luminescence
Measured potencies and affinities stand elsewhere. The source made the active and inactive calls. Cut-off not given; nearly all actives show IC50 up to about 0.98 µM.
readout-name: outcome

Use the examples below as a reference point.
[[record]]
compound = "CCN(CCCN1CCCCC1)c1cc(C)nc(Nc2ccc(Cl)c(C(F)(F)F)c2)n1"
readout_name = "outcome"
result = "inactive"

[[record]]
compound = "COc1ccc2c(c1)CC(C)(C)NC2CCCCCCCCC1NC(C)(C)Cc2cc(OC)ccc21 (centres undefined)"
readout_name = "outcome"
result = "inactive"

[[record]]
compound = "O=C(Cc1ccc(F)cc1)NC1CCN(c2ccnc3cc(Cl)ccc23)C1 (centres undefined)"
readout_name = "outcome"
result = "inactive"

[[record]]
compound = "O=C(N[C@H]1CCN(Cc2ccc(OC3CCN(Cc4ccccc4)CC3)cc2)C1)c1ccc(Cl)c(Cl)c1"
readout_name = "outcome"
result = "inactive"

[[record]]
compound = "CCCCN(CCCC)CCCN(CCCN(CCCC)CCCC)c1cc(C)nc(Nc2ccc3cc(Br)ccc3c2)n1"
readout_name = "outcome"
result = "inactive"

[[record]]
compound = "CS(=O)(=O)CCNCc1cc(-c2cc3ncnc(Nc4ccc(OCc5cccc(F)c5)c(Cl)c4)c3s2)cs1"
readout_name = "outcome"
result = "inactive"

[[record]]
compound = "O=C(Nc1ccc([N+](=O)[O-])cc1Br)c1cc2ccccc2nc1Cl"
readout_name = "outcome"
result = "inactive"

[[record]]
compound = "O=C(NCc1cccc(C(F)(F)F)c1)C1CCCN(C(=O)c2ccc(O)c(-c3ccc(Cl)c(Cl)c3)c2)C1 (centres undefined)"
readout_name = "outcome"
result = "inactive"


[ask] Consider the compound `OCCCCCCNc1nc(NCc2ccccc2-c2ccc(C(F)(F)F)cc2)nc(N2CCNCC2)n1` and give its measured outcome.
[reply] inactive

Numbers sourced from PubChem BioAssay.
